- target or system: recombinant soluble homotrimeric HA of A/Indonesia/5/05 (H5N1) (Influenza A virus A/Indonesia/5/2005 (H5N1))
- test details: HA microarray, BCC supernatant
- condition label: remark: other sources report otherwise
quantity kind: Trimeric HA Binding RLU
Please answer using a numeric value trailed by its unit.

Reference set (2 entries):
1) TCN-521 (3280_D18) (antibody, V domains shown) VH: EVQLVQSGGGLVQPGGSLRLACVVSGFTVTSNYITWVRQAPGKGLEWVSVIYSHGRAYYSASVNGRFTISRHTSKNTVYLEMNSLRPEDTAVYYCAGGGLVGGYDEYFFDYWGQGTLATVSS VL: ETVLTQSPGTLSLTPGERATLSCRVGQSVSGSHLAWYQQKPGQAPRLLIYGASSRATGIPDRFGGSVSGTDFTLTISRLEPEDSAVYYCQQYGDSRYTFGQGTKLEIK: 31500 RLU
2) TCN-533 (5256_A17) (antibody, V domains shown) VH: QVQLVQSGADVKKPGSSVTVSCKASGGSFSNYGINWVRQAPGQGLEWMGGIIPLINAPNYAPKFQGRVTITADMFSNIVSLQLTSLRTDDTAVYYCARRKMTTAIDYWGQGTLVTVSS VL: QPVLSQPPSASASLGASVTLTCTLSSGFDNYQVAWYQQRPGKGPRFVMRVGNGGNVASKGDGIPDRFSVSGSGLNRYLTIKNIQEDDESDYYCGADHGSGNNFVSPYVFGGGTKLTVL: 44100 RLU

Reported Trimeric HA Binding RLU ( TCN-527 (5086_C06) (antibody, V domains shown) VH: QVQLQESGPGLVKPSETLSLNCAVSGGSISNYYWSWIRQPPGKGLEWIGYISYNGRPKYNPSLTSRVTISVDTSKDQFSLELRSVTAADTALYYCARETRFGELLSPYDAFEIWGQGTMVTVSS VL: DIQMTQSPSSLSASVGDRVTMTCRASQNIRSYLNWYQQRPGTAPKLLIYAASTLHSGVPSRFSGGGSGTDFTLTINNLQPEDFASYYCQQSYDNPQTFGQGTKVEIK ) = 23800 RLU
